Tested on: CYP3A4 (Homo sapiens)
Construct: pre-incubated with human liver microsomes and NADPH; from tissue; host or cells: human liver microsomes
Sequence (P08684 whole entry): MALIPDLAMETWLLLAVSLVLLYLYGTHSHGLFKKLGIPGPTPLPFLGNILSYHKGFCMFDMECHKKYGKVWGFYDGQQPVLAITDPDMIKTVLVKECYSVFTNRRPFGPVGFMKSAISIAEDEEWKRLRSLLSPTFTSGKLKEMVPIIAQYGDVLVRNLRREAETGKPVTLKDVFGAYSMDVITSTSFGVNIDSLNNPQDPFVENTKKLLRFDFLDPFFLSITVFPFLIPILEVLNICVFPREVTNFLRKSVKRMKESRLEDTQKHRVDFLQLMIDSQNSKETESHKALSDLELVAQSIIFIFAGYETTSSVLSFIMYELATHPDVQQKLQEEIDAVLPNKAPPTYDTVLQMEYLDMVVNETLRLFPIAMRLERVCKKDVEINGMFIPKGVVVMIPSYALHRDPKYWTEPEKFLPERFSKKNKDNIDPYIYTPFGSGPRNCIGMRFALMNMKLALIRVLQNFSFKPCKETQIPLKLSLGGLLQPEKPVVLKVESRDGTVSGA
Test summary: Cytochrome P450 inhibition assay (midazolam hydroxylation)
Format: in vitro ADME
Test context: human, human liver microsomes, probe midazolam (hydroxylation to 1′-hydroxymidazolam), 10 μM test compound, midazolam at approximately its Km
Measured parameter: inhibition at 10 µM (%)

Here's what some known entries look like.
| Chem smiles | Uom | Recorded number |
| --- | --- | --- |
| Cc1ccc(C(=O)N2CCC[C@@H](C)[C@H]2CNc2ncc(C(F)(F)F)cn2)c(-c2ncccn2)c1F | % | 52 |
| Cc1ccc(-c2cccnc2)c(C(=O)N2CCC[C@@H](C)[C@H]2CNc2nc3cc(Cl)ccc3o2)c1 | % | 98 |
| Cc1ccc(-n2ccc(C)n2)c(C(=O)N2CCC[C@@H](C)[C@H]2CNc2ccc(C#N)cn2)c1 | % | 89 |
| Cc1ccc(-c2ncccn2)c(C(=O)N2CCC[C@@H](C)[C@H]2CNc2ncc(Cl)cc2F)c1 | % | 76 |

[a] C[C@@H]1CCCN(C(=O)c2ccccc2-c2ncccn2)[C@@H]1CNc1ccc(C(F)(F)F)cn1
[b] Cc1ccc(-n2cnc(C)n2)c(C(=O)N2CCC[C@@H](C)[C@H]2CNc2ccc(C(F)(F)F)cn2)c1
# return whichever of a and b has the smaller inhibition at 10 µM Give the chosen item's label as your response.
a
(a: 63%, b: 95%)

###

Tested on: OX1 (Homo sapiens, UniProt O43613)
Construct: expressed in transfected cells; host or cells: CHO (CHO-OX1, kept under selection antibiotic)
Test summary: Orexin receptor cell-based functional assay, [Ca2+]i by FLIPR, CHO-OX1 cells
Test context: CHO-OX1 cells, [Ca2+]i by FLIPR, antagonist dose-range 0.1 nM-10 μM, EC90 of OXA; read-out: OX1
pIC50: −log10 of the molar value.
Measured parameter: pIC50

| Chem smiles | Recorded number |
| --- | --- |
| Cc1ccc(-c2ccccn2)c(C(=O)N2CCC[C@@H](C)[C@H]2CNc2ccc(C(F)(F)F)cn2)n1 | 6.82 |
| Cc1ccc(-n2cccn2)c(C(=O)N2CCC[C@@H](C)[C@H]2CNc2ccc(C(F)(F)F)nn2)c1 | 6.96 |
| Cc1ccc(-c2cnn(C)c2)c(C(=O)N2CCC[C@@H](C)[C@H]2CNc2nc3ccc(Cl)cc3o2)c1 | 7.09 |
| Cc1ccc(-n2nccn2)c(C(=O)N2CCC[C@@H](C)[C@H]2CNc2ccc(C#N)cn2)n1 | 6.92 |

###

Tested on: OX1 (Homo sapiens)
Construct: expressed in transfected cells; host or cells: CHO (CHO-OX1, kept under selection antibiotic)
Sequence (O43613 1-425): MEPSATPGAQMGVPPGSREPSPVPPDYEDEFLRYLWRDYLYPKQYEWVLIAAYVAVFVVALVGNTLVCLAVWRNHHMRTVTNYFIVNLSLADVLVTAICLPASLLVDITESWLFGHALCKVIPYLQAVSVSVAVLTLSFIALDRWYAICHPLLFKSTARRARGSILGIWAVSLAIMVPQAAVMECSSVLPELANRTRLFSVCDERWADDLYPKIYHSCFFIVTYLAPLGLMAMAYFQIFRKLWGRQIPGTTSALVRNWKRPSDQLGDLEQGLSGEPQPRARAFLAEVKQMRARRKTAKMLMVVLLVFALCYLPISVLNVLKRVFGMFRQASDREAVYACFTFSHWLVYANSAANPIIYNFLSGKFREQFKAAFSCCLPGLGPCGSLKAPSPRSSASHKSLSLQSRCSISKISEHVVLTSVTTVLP
Test summary: Orexin receptor cell-based functional assay, [Ca2+]i by FLIPR, CHO-OX1 cells
Test context: CHO-OX1 cells, [Ca2+]i by FLIPR, antagonist dose-range 0.1 nM-10 μM, EC90 of OXA; read-out: OX1
pIC50: −log10 of the molar value.
Measured parameter: pIC50

Below, each entry is followed by its recorded pIC50 result.
| Compound | pIC50 |
| --- | --- |
| Cc1ccc(-c2ccccn2)c(C(=O)N2CCC[C@@H](C)[C@H]2CNc2ncc(C(F)(F)F)cn2)c1 [Example A152] | 8.40 |
| Cc1ccc(-n2nccn2)c(C(=O)N2CCC[C@@H](C)[C@H]2CNc2ncc(C(F)(F)F)cc2F)c1 [Example A82] | 8.10 |
| COc1c(F)cccc1C(=O)N1CCC[C@@H](C)[C@H]1CNc1ccc(C(F)(F)F)cn1 [Example A75] | 5.89 |

[a] Cc1ccc(-n2nccn2)c(C(=O)N2CCC[C@@H](C)[C@H]2CNc2ccc(C#N)cn2)c1 [Example A46]
[b] C[C@@H]1CCCN(C(=O)c2c(F)cccc2-c2ncccn2)[C@@H]1CNc1ncc(Cl)cn1 [Example A239]
Please tell me which of the two, a or b , has the higher reported pIC50 value. Write down the label of the entry you select.
a
(a: 8.30, b: 7.08)

###

IC50 values, listed per item
Tested on: OX1 (Homo sapiens)
Construct: expressed in transfected cells; host or cells: CHO (CHO-OX1, kept under selection antibiotic)
Sequence (O43613 1-425): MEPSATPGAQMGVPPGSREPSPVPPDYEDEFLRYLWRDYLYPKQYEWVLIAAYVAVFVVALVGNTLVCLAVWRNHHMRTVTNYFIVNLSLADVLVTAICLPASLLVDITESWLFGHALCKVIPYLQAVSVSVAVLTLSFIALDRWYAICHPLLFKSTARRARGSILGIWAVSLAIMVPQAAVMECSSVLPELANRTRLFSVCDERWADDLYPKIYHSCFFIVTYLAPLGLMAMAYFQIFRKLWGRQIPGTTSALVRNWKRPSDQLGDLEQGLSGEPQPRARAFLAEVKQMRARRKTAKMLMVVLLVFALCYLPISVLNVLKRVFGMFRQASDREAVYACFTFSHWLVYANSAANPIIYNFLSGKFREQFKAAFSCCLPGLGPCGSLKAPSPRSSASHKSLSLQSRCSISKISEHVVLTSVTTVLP
Test summary: Orexin receptor cell-based functional assay, [Ca2+]i by FLIPR, CHO-OX1 cells
Test context: Table 2; CHO-OX1 cells, EC90 of OXA; read-out: IC50 Bioactivity OX1

Here is how some molecules turned out for IC50.
| Molecule | IC50 |
| --- | --- |
| Cc1ccc(-n2ccnc2)c(C(=O)N2CCC[C@@H](C)[C@H]2CNc2ccc(C(F)(F)F)cn2)c1 (racemic) [Example 116] | < 100 nM |
| Cc1nc(C(=O)N2CC(F)(F)CCC2CNC(=O)c2cccc3cccnc23)c(-c2ccccc2)s1 (racemic) [Example 56] | < 100 nM |

Below: the item to evaluate.
Would you mind telling me what IC50 value was observed for CCNC1CCC(CNC(=O)c2cccc3cccnc23)N(C(=O)c2sc(C)nc2-c2ccccc2)C1 (racemic) [Example 46] ?
< 10000 nM

###

Tested on: CYP3A4 (Homo sapiens)
Construct: pre-incubated with human liver microsomes and NADPH; from tissue; host or cells: human liver microsomes
Test summary: Cytochrome P450 inhibition assay (midazolam hydroxylation)
Type: in vitro ADME
Test context: human, human liver microsomes, probe midazolam (hydroxylation to 1′-hydroxymidazolam), 10 μM test compound, midazolam at approximately its Km
Measured parameter: inhibition at 10 µM (%)

Example results:
| Compound | Tested on | Recorded number |
| --- | --- | --- |
| Cc1ccc(-c2c(C)noc2C)c(C(=O)N2CCC[C@@H](C)[C@H]2CNc2ccc(C(F)(F)F)cn2)c1 | CYP3A4 (Homo sapiens) | 93 |
| Cc1ccc(-n2cccn2)c(C(=O)N2CCC[C@@H](C)[C@H]2CNc2ccc(C#N)nn2)c1 | CYP3A4 (Homo sapiens) | 53 |
| Cc1ccc(-n2nccn2)c(C(=O)N2CCC[C@@H](C)[C@H]2CNc2ccc(C(F)(F)F)cn2)c1F | CYP3A4 (Homo sapiens) | 79 |
| COc1cccnc1NC[C@@H]1[C@H](C)CCCN1C(=O)c1cc(C)ccc1-n1nccn1 | CYP3A4 (Homo sapiens) | 48 |
| C[C@@H]1CCCN(C(=O)c2cc(F)c(F)cc2-n2nccn2)[C@@H]1CNc1ccc(Cl)cn1 | CYP3A4 (Homo sapiens) | 69 |

[I] C[C@@H]1CCCN(C(=O)c2cc(F)ccc2-n2nccn2)[C@@H]1CNc1ncc(Cl)cn1
[II] Cc1ccc(-n2ccc(C)n2)c(C(=O)N2CCC[C@@H](C)[C@H]2CNc2nc3cc(Cl)ccc3o2)c1
[III] Cc1ccc(-c2ncccn2)c(C(=O)N2CCC[C@@H](C)[C@H]2CNc2ncc(C(F)(F)F)cn2)n1
Sort these compounds on inhibition at 10 µM so the largest reading comes first. Sort the labels as requested; that list is your answer.
II, I, III

[P] Cc1ccc(-c2cnn(C)c2)c(C(=O)N2CCC[C@@H](C)[C@H]2CNc2cccc(C(F)(F)F)n2)c1
[Q] Cc1nc(C(=O)N2CCCC(C)C2CNc2ncc(C(F)(F)F)cn2)c(-c2ccc(F)cc2)s1 (racemic)
Rank P against Q by their inhibition at 10 µM values and give the higher one. The response must carry the label of the picked entry.
P
(P: 99%, Q: 57%)
